Reference for the values: ChEMBL document CHEMBL1157836

Assay: Therapeutic index, ratio of CC50 for C8166 cells to EC50 for HIV1
Type: cell-based
Conditions: human, read-out: TI
Is selectivity ratio at least 8? Then 1. If not, 0.

The examples below pair each entry with its known result.
{"mol smiles": "COc1c(O)cc2c(c1OC)-c1c(cc(O)c(OC)c1OC)[C@H](OC(C)=O)[C@@H](C)[C@@H](C)C2", "classification": 1}
{"mol smiles": "COc1c(O)cc2c(c1OC)-c1c(cc(O)c(OC)c1OC)[C@H](O)[C@@H](C)[C@@H](C)C2", "classification": 0}
{"mol smiles": "COc1c(O)cc2c(c1O)-c1c(cc(O)c(OC)c1OC)C[C@@H](C)[C@@H](C)C2", "classification": 0}

Q: I'd appreciate it if you could say whether COc1c(O)cc2c(c1OC)-c1c(cc(O)c(OC)c1OC)[C@H](OC(=O)c1ccccc1)[C@@H](C)[C@@H](C)C2 has selectivity ratio at least equal to 8.
Result: 0

Q: I'd appreciate it if you could say whether COc1c(O)cc2c(c1OC)-c1c(cc(O)c(OC)c1OC)C(=O)[C@@H](C)[C@@H](C)C2 has selectivity ratio at least equal to 8.
Result: 1

Q: I'd appreciate it if you could say whether COc1cc2c(c(OC)c1OC)-c1c(cc(O)c(OC)c1O)C[C@H](C)[C@@](C)(O)C2 has selectivity ratio at least equal to 8.
Result: 0

---

Assay: Therapeutic index, ratio of CC50 for C8166 cells to EC50 for HIV1
Assay type: cell-based
Conditions: human, read-out: TI
observed property: selectivity ratio
// return just the number, without any unit appended

Some solved cases for reference:
{"mol smiles": "COc1c(O)cc2c(c1OC)-c1c(cc(O)c(OC)c1OC)C[C@](C)(O)[C@@H](C)C2", "value": 16.4}
{"mol smiles": "COc1cc2c(c(O)c1OC)-c1c(cc(O)c(OC)c1O)C[C@@H](C)[C@@H](C)C2", "value": 8.4}
{"mol smiles": "COc1cc2c(c(O)c1O)-c1c(cc(OC)c(OC)c1O)C[C@@H](C)[C@@H](C)C2", "value": 13.2}
{"mol smiles": "CCO[C@H]1c2cc(OC)c(OC)c(OC)c2-c2c(cc(OC)c(OC)c2OC)C[C@H](C)[C@@H]1C", "value": 9.3}
{"mol smiles": "COc1cc2c(c(OC)c1OC)-c1c(cc(OC)c(OC)c1OC)[C@H](OC(C)=O)[C@@H](C)[C@@H](C)C2", "value": 4.6}

Q: Give the reported value of selectivity ratio for this record: COc1c(O)cc2c(c1OC)-c1c(cc(O)c(OC)c1OC)[C@H](OC)[C@@H](C)[C@@H](C)C2
Result: 15.6
